In this section, each of the compounds is paired with its reported TRS (%).
experiment: Stability test of salts of compound 1 (HPLC, XRD); format: physicochemical; details: Illumination 5K lux closed, day 10
metric_name: TRS (%)

{"compound": "CN[C@@H](C)C(=O)N[C@H]1CN(S(=O)(=O)c2cccc(S(=O)(=O)N3CC[C@H]4CC[C@@H](C(=O)NC(c5ccccc5)c5ccccc5)N4C(=O)[C@@H](NC(=O)[C@H](C)NC)C3)c2)CC[C@H]2CCC(C(=O)NC(c3ccccc3)c3ccccc3)N2C1=O (stereo partly drawn) [Compound 1 di-p-toluenesulfonate amorphous Form XVI]", "metric_name": "TRS (%)", "value": 2.40}
{"compound": "CN[C@@H](C)C(=O)N[C@H]1CN(S(=O)(=O)c2cccc(S(=O)(=O)N3CC[C@H]4CC[C@@H](C(=O)NC(c5ccccc5)c5ccccc5)N4C(=O)[C@@H](NC(=O)[C@H](C)NC)C3)c2)CC[C@H]2CCC(C(=O)NC(c3ccccc3)c3ccccc3)N2C1=O (stereo partly drawn) [compound 1 disulfate amorphous form XXIII]", "metric_name": "TRS (%)", "value": 5.50}
{"compound": "CN[C@@H](C)C(=O)N[C@H]1CN(S(=O)(=O)c2cccc(S(=O)(=O)N3CC[C@H]4CC[C@@H](C(=O)NC(c5ccccc5)c5ccccc5)N4C(=O)[C@@H](NC(=O)[C@H](C)NC)C3)c2)CC[C@H]2CCC(C(=O)NC(c3ccccc3)c3ccccc3)N2C1=O (stereo partly drawn) [Compound 1 dimethanesulfonate crystalline Form XVIII]", "metric_name": "TRS (%)", "value": 2.64}

====

test: Stability test of salts of compound 1 (HPLC, XRD); format: physicochemical; conditions: Illumination 5K lux closed, day 5
Structures can show the parent of a compound that is named as a salt.

{"molecule": "CN[C@@H](C)C(=O)N[C@H]1CN(S(=O)(=O)c2cccc(S(=O)(=O)N3CC[C@H]4CC[C@@H](C(=O)NC(c5ccccc5)c5ccccc5)N4C(=O)[C@@H](NC(=O)[C@H](C)NC)C3)c2)CC[C@H]2CCC(C(=O)NC(c3ccccc3)c3ccccc3)N2C1=O (stereo partly shown) [compound 1 disulfate amorphous form XXIII]", "XPRD": "Amorphous"}
{"molecule": "CN[C@@H](C)C(=O)N[C@H]1CN(S(=O)(=O)c2cccc(S(=O)(=O)N3CC[C@H]4CC[C@@H](C(=O)NC(c5ccccc5)c5ccccc5)N4C(=O)[C@@H](NC(=O)[C@H](C)NC)C3)c2)CC[C@H]2CCC(C(=O)NC(c3ccccc3)c3ccccc3)N2C1=O (stereo partly shown) [compound 1 dihydrochloride amorphous form V]", "XPRD": "Amorphous"}
{"molecule": "CN[C@@H](C)C(=O)N[C@H]1CN(S(=O)(=O)c2cccc(S(=O)(=O)N3CC[C@H]4CC[C@@H](C(=O)NC(c5ccccc5)c5ccccc5)N4C(=O)[C@@H](NC(=O)[C@H](C)NC)C3)c2)CC[C@H]2CCC(C(=O)NC(c3ccccc3)c3ccccc3)N2C1=O (stereo partly shown) [Compound 1 di-p-toluenesulfonate amorphous Form XVI]", "XPRD": "Amorphous"}

====

Quick list: TRS (%) per entry.
experiment: Stability test of salts of compound 1 (HPLC, XRD); assay type: physicochemical; details: Illumination 5K lux closed, day 5
Structures can show the parent of a compound that is named as a salt.

{"compound": "CN[C@@H](C)C(=O)N[C@H]1CN(S(=O)(=O)c2cccc(S(=O)(=O)N3CC[C@H]4CC[C@@H](C(=O)NC(c5ccccc5)c5ccccc5)N4C(=O)[C@@H](NC(=O)[C@H](C)NC)C3)c2)CC[C@H]2CCC(C(=O)NC(c3ccccc3)c3ccccc3)N2C1=O (stereo partly shown) [compound 1 dihydrochloride amorphous form V]", "TRS (%)": 1.81}
{"compound": "CN[C@@H](C)C(=O)N[C@H]1CN(S(=O)(=O)c2cccc(S(=O)(=O)N3CC[C@H]4CC[C@@H](C(=O)NC(c5ccccc5)c5ccccc5)N4C(=O)[C@@H](NC(=O)[C@H](C)NC)C3)c2)CC[C@H]2CCC(C(=O)NC(c3ccccc3)c3ccccc3)N2C1=O (stereo partly shown) [compound 1 disulfate amorphous form XXIII]", "TRS (%)": 3.66}
{"compound": "CN[C@@H](C)C(=O)N[C@H]1CN(S(=O)(=O)c2cccc(S(=O)(=O)N3CC[C@H]4CC[C@@H](C(=O)NC(c5ccccc5)c5ccccc5)N4C(=O)[C@@H](NC(=O)[C@H](C)NC)C3)c2)CC[C@H]2CCC(C(=O)NC(c3ccccc3)c3ccccc3)N2C1=O (stereo partly shown) [Compound 1 dimethanesulfonate crystalline Form XVIII]", "TRS (%)": 2.63}
{"compound": "CN[C@@H](C)C(=O)N[C@H]1CN(S(=O)(=O)c2cccc(S(=O)(=O)N3CC[C@H]4CC[C@@H](C(=O)NC(c5ccccc5)c5ccccc5)N4C(=O)[C@@H](NC(=O)[C@H](C)NC)C3)c2)CC[C@H]2CCC(C(=O)NC(c3ccccc3)c3ccccc3)N2C1=O (stereo partly shown) [Compound 1 di-p-toluenesulfonate amorphous Form XVI]", "TRS (%)": 1.89}

====

The following compounds are shown together with reported TRS (%) values.
experiment: Stability test of salts of compound 1 (HPLC, XRD); format: physicochemical; details: Initial sample, day 0
Where a name gives a salt, the structure may show the parent alone.

{"compound": "CN[C@@H](C)C(=O)N[C@H]1CN(S(=O)(=O)c2cccc(S(=O)(=O)N3CC[C@H]4CC[C@@H](C(=O)NC(c5ccccc5)c5ccccc5)N4C(=O)[C@@H](NC(=O)[C@H](C)NC)C3)c2)CC[C@H]2CCC(C(=O)NC(c3ccccc3)c3ccccc3)N2C1=O (stereo partly shown) [compound 1 disulfate amorphous form XXIII]", "TRS (%)": 1.96}
{"compound": "CN[C@@H](C)C(=O)N[C@H]1CN(S(=O)(=O)c2cccc(S(=O)(=O)N3CC[C@H]4CC[C@@H](C(=O)NC(c5ccccc5)c5ccccc5)N4C(=O)[C@@H](NC(=O)[C@H](C)NC)C3)c2)CC[C@H]2CCC(C(=O)NC(c3ccccc3)c3ccccc3)N2C1=O (stereo partly shown) [compound 1 dihydrochloride amorphous form V]", "TRS (%)": 0.73}
{"compound": "CN[C@@H](C)C(=O)N[C@H]1CN(S(=O)(=O)c2cccc(S(=O)(=O)N3CC[C@H]4CC[C@@H](C(=O)NC(c5ccccc5)c5ccccc5)N4C(=O)[C@@H](NC(=O)[C@H](C)NC)C3)c2)CC[C@H]2CCC(C(=O)NC(c3ccccc3)c3ccccc3)N2C1=O (stereo partly shown) [Compound 1 di-p-toluenesulfonate amorphous Form XVI]", "TRS (%)": 1.66}
{"compound": "CN[C@@H](C)C(=O)N[C@H]1CN(S(=O)(=O)c2cccc(S(=O)(=O)N3CC[C@H]4CC[C@@H](C(=O)NC(c5ccccc5)c5ccccc5)N4C(=O)[C@@H](NC(=O)[C@H](C)NC)C3)c2)CC[C@H]2CCC(C(=O)NC(c3ccccc3)c3ccccc3)N2C1=O (stereo partly shown) [Compound 1 dimethanesulfonate crystalline Form XVIII]", "TRS (%)": 2.44}

====

assay: Stability test of salts of compound 1 (HPLC, XRD); assay type: physicochemical; details: Illumination 5K lux closed, day 10
Structures can show the parent of a compound that is named as a salt.

{"molecule": "CN[C@@H](C)C(=O)N[C@H]1CN(S(=O)(=O)c2cccc(S(=O)(=O)N3CC[C@H]4CC[C@@H](C(=O)NC(c5ccccc5)c5ccccc5)N4C(=O)[C@@H](NC(=O)[C@H](C)NC)C3)c2)CC[C@H]2CCC(C(=O)NC(c3ccccc3)c3ccccc3)N2C1=O (stereo partly shown) [compound 1 dihydrochloride amorphous form V]", "XPRD": "Amorphous"}
{"molecule": "CN[C@@H](C)C(=O)N[C@H]1CN(S(=O)(=O)c2cccc(S(=O)(=O)N3CC[C@H]4CC[C@@H](C(=O)NC(c5ccccc5)c5ccccc5)N4C(=O)[C@@H](NC(=O)[C@H](C)NC)C3)c2)CC[C@H]2CCC(C(=O)NC(c3ccccc3)c3ccccc3)N2C1=O (stereo partly shown) [Compound 1 di-p-toluenesulfonate amorphous Form XVI]", "XPRD": "Amorphous"}
{"molecule": "CN[C@@H](C)C(=O)N[C@H]1CN(S(=O)(=O)c2cccc(S(=O)(=O)N3CC[C@H]4CC[C@@H](C(=O)NC(c5ccccc5)c5ccccc5)N4C(=O)[C@@H](NC(=O)[C@H](C)NC)C3)c2)CC[C@H]2CCC(C(=O)NC(c3ccccc3)c3ccccc3)N2C1=O (stereo partly shown) [compound 1 disulfate amorphous form XXIII]", "XPRD": "Amorphous"}

====

Test: Stability test of salts of compound 1 (HPLC, XRD)
Assay type: physicochemical
Settings: Illumination 5K lux closed, day 10
Protocol: 30 mg of the compound was weighed and added into an 8 mL glass bottle, and then was placed under the condition of room temperature (25° C., closed), high humidity (room temperature/75% RH, open) and light (25° C. closed, white light: 5000 Lux, ultraviolet 282 μW/cm2). samples were taken on the 5th, 10th, and 30th day for detection (HPLC, XRD).
Counter-ions that a name gives are not always drawn.

{"compound": "CN[C@@H](C)C(=O)N[C@H]1CN(S(=O)(=O)c2cccc(S(=O)(=O)N3CC[C@H]4CC[C@@H](C(=O)NC(c5ccccc5)c5ccccc5)N4C(=O)[C@@H](NC(=O)[C@H](C)NC)C3)c2)CC[C@H]2CCC(C(=O)NC(c3ccccc3)c3ccccc3)N2C1=O (stereo partly shown) [compound 1 dihydrochloride amorphous form V]", "TRS (%)": 2.54}
